Target Or System: T1, B3GNT2 (Homo sapiens, UniProt Q9NY97)
T1 construct: The respective ORFs of candidate genes [CD274 (NM_014143), MCL1 (NM_021960), JUNB (NM_002229), and B3GNT2 (NM_006577)] were synthesized; expressed in transfected cells; host or cells: A375 melanoma cells (lentiviral ORF overexpression)
T1 sequence (Q9NY97 1-397): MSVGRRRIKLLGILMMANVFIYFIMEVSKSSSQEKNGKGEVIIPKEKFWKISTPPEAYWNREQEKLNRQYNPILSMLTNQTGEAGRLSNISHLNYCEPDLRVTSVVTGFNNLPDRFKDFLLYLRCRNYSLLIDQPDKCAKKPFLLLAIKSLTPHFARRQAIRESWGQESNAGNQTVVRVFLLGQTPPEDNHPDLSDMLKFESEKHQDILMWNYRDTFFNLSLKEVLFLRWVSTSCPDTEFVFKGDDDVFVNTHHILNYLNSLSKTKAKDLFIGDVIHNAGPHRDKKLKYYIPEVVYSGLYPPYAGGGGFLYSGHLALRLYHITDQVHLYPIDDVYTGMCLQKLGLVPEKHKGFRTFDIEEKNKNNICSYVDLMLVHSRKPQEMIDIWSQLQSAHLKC
Protocol Details: Co-IP of FLAG-tagged B3GNT2 followed by mass spectrometry
Format: cell-based
Condition Parameters: Co-IP with IgG control antibody, N-terminally FLAG-tagged B3GNT2; mass spectrometry count, unit not given

Molecule	N-term IgG
CSRP1 (protein) MPNWGGGKKCGVCQKTVYFAEEVQCEGNSFHKSCFLCMVCKKNLDSTTVAVHGEEIYCKSCYGKKYGPKGYGYGQGAGTLSTDKGESLGIKHEEAPGHRPTTNPNASKFAQKIGGSERCPRCSQAVYAAEKVIGAGKSWHKACFRCAKCGKGLESTTLADKDGEIYCKGCYAKNFGPKGFGFGQGAGALVHSE	0
SLC25A6 (protein) MTEQAISFAKDFLAGGIAAAISKTAVAPIERVKLLLQVQHASKQIAADKQYKGIVDCIVRIPKEQGVLSFWRGNLANVIRYFPTQALNFAFKDKYKQIFLGGVDKHTQFWRYFAGNLASGGAAGATSLCFVYPLDFARTRLAADVGKSGTEREFRGLGDCLVKITKSDGIRGLYQGFSVSVQGIIIYRAAYFGVYDTAKGMLPDPKNTHIVVSWMIAQTVTAVAGVVSYPFDTVRRRMMMQSGRKGADIMYTGTVDCWRKIFRDEGGKAFFKGAWSNVLRGMGGAFVLVLYDELKKVI	0
